Origin of values: patent US20200024322A1

biological target: T1, human glucagon receptor (human, UniProt P47871 26-477); experiment: [125I]-Gcg competition SPA, hGcgR membranes
T1 construct: whole, on cells; also called hGcgR; GcgR
T1 sequence (P47871 26-477): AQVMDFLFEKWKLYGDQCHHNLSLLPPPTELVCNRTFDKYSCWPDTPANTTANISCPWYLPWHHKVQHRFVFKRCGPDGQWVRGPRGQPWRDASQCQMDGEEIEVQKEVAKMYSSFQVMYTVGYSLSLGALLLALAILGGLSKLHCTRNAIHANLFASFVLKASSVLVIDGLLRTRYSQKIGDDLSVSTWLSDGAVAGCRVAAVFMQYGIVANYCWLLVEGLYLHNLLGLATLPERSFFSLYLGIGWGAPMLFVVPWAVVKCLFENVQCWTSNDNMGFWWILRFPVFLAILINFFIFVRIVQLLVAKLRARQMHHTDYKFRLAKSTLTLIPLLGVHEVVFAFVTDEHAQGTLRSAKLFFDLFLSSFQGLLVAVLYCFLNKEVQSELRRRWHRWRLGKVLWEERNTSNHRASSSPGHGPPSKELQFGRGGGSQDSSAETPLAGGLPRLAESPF
pKi: −log10 of the molar value. Numbered stars: 1 amine (or outer) side, 2 acyl side, 3 side chain; on linkers, the order of the positions; unused ones are H or OH. Square brackets hold non-standard residues; d marks the D form. Side chains are listed from the residue outwards. Ends that are not written are not given here. * marks the point of attachment. C20 diacid = O=C(O)CCCCCCCCCCCCCCCCCCC(=O)*; γGlu = O=C(O)[C@H](CCC(=O)[*:2])N[*:1]; AEEA = NCCOCCOCC(=O)O; Aib = CC(C)(N)C(=O)O
# pKi per entry
observable: pKi

>>> val("YXEGTXTSDLSIXLDXKAQXEFIXXLIEGGPSSGAPPPS (Aib2; αMeF(2F)6; αMeL13; Orn16; K17((2-[2-(2-Amino-ethoxy)-ethoxy]-acetyl)2-(γ-Glu)-CO-(CH2)16-CO2H); Aib20; D-Glu24; αMeY25; C-terminal NH2) [Example 238]")
6.64
>>> val("YXEGTXTSDYSIXLDEKAQXEFIXYLIEGGPSSGAPPPS (Aib2; αMeF(2F)6; Aib13; K17((2-[2-(2-Amino-ethoxy)-ethoxy]-acetyl)2-(γ-Glu)-CO-(CH2)18-CO2H); Aib20; D-Glu24; C-terminal NH2) [Example 224]")
6.20
>>> val("YXEGTFTSDYSILLDKKAQQAFIEYLIEGGPSSGAPPPS (Aib2; K17((2-[2-(2-Amino-ethoxy)-ethoxy]-acetyl)2-(γ-Glu)-CO-(CH2)18-CO2H); C-terminal NH2) [Example 254]")
6.83
>>> val("F[Aib]EGTFTSDYSILLDKK([AEEA-AEEA-γGlu-C20 diacid])AQ[Aib]AFIEYLIEGGPSSGAPPPS-NH2 [Example 326]")
6.68
>>> val("YXEGTFTSDYSIXLDKKAQXAFIEYLIEGGPSSG (Aib2; αMeL13; K17((2-[2-(2-Amino-ethoxy)-ethoxy]-acetyl)2-(γ-Glu)-CO-(CH2)16-CO2H); Aib20; C-terminal NH2) [Example 300]")
6.60
>>> val("YXEGTXTSDYSILLDEKAQXEFIXYLIEGGPSSGAPPPS (Aib2; αMeF(2F)6; K17((2-[2-(2-Amino-ethoxy)-ethoxy]-acetyl)2-(γ-Glu)-CO-(CH2)18-CO2H); Aib20; D-Glu24; C-terminal NH2) [Example 226]")
6.70
>>> val("XXEGTFTSDYSIXLDXKAQXAFVEYLIAGGPSSGAPPPS (D-Tyr1; Aib2; αMeL13; Orn16; K17((2-[2-(2-Amino-ethoxy)-ethoxy]-acetyl)2-(γ-Glu)-CO-(CH2)18-CO2H); Aib20; C-terminal NH2) [Example 358]")
6.04
>>> val("FXEGTFTSDYSIXLDKKAQXAFIEYLIAGGPSSGAPPPS (Aib2; αMeL13; K17((2-[2-(2-Amino-ethoxy)-ethoxy]-acetyl)2-(γ-Glu)-CO-(CH2)18-CO2H); Aib20; C-terminal NH2) [Example 337]")
6.47
>>> val("YXEGTFTSDYSILLDKKAQXAFIEYLIEGGPSSGAPPPS (Aib2; K17((2-[2-(2-Amino-ethoxy)-ethoxy]-acetyl)2-(γ-Glu)-CO-(CH2)16-CO2H); Aib20; C-terminal NH2) [Example 315]")
6.27
>>> val("YXEGTXTSDYSIXLDXKAQXEFIXXLIEGGPSSGAPPPS (Aib2; αMeF(2F)6; αMeL13; Orn16; K17((2-[2-(2-Amino-ethoxy)-ethoxy]-acetyl)2-(γ-Glu)-CO-(CH2)16-CO2H); Aib20; D-Glu24; αMeY25; C-terminal NH2) [Example 236]")
6.70
>>> val("XXEGTXTSDYSIXLDKKAQXAFIEYLIEGGPSSGAPPPS (D-Tyr1; Aib2; αMeF6; αMeL13; K17((2-[2-(2-Amino-ethoxy)-ethoxy]-acetyl)2-(γ-Glu)-CO-(CH2)18-CO2H); Aib20; C-terminal NH2) [Example 335]")
7.57
>>> val("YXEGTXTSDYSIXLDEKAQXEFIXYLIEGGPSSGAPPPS (Aib2; αMeF(2F)6; αMeL13; K17((2-[2-(2-Amino-ethoxy)-ethoxy]-acetyl)2-CO-(CH2)18-CO2H); Aib20; D-Glu24; C-terminal NH2) [Example 215]")
7.12
